FYI, the data here is from paper PMC12656849.

molecular target: MPXV H1 (Monkeypox virus)
Sequence (A0A7H0DN78 whole entry, looked up): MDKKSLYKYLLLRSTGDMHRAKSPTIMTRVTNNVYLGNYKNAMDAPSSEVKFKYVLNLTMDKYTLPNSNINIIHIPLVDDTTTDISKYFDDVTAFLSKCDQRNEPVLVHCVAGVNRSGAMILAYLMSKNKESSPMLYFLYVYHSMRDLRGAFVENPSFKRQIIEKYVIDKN
Where a name gives a salt, the structure may show the parent alone.
Threshold check on IC50: strictly below 500 nM is Condition met; on or above 500 nM is Condition not met.

Would you please look over these solved cases?
>>> df
                                   molecule        group_label
0  COc1cc2c3c(cc4ccccc4c3c1OC)N(C)CC2 [Compound 123, Dehydronuciferine]      Condition met
1                    N#CSc1cc(SC#N)c(N)nc1N      Condition met
2   COc1cc2c3c(c1OC)-c1ccccc1C[C@H]3N(C)CC2  Condition not met
3  Cl.Oc1cccc(O)n1 [Compound 57, 2,6-Dihydroxypyridine hydrochloride]  Condition not met
4  CC(C)NC1=CC=CNC1N1CCN(C(=O)c2cc3cc(NS(C)(=O)=O)ccc3[nH]2)CC1 (stereo not shown) [Compound 88, Delavirdine (mesylate)]  Condition not met
5         CC1(C)CCC2=C(O1)c1ccccc1C(=O)C2=O      Condition met
6  CC(C)(C)C(=O)Nc1ccc2c(c1)C(=O)C(=O)c1ccccc1-2      Condition met
7  CN(C)CCNc1nc2cc(O)ccc2c2c1C(=O)c1ccccc1-2 [Compound 68, TAS-103 (dihydrochloride)]  Condition not met

Enquiry: Here's an entry: Cc1coc2c1C(=O)C(=O)c1c-2ccc2c1CCCC2(C)C . Is its IC50 below 500 nM?
Return: Condition not met

Enquiry: Here's an entry: COCCn1c2c([n+](Cc3cnccn3)c1C)C(=O)c1ccccc1C2=O . Is its IC50 below 500 nM?
Return: Condition not met
